Provenance of the data: ChEMBL document CHEMBL3433997

- target-or-system: Glucose transporter (Leishmania mexicana) (UniProt O61059)
- procedure-text: ST_JUDE_LEISH: Cytotoxicity at 2uM final concentration against transgenic Leishmania Mexicana promastigotes LmGT2 that are glucose transport deficient and complemented with the L. Mexicana glucose transporter 2. Activity is measured by DNA content using SYBR green in vitro
- Type: functional
Field: inhibition. Provide a value for each of the compounds that follow.
Numbers only; they are read as %.

Note to self: inhibition recorded for O=C(c1csc(-c2cccnc2)n1)N1CCc2cc3nccc(N4CCN5CCC[C@H]5C4)c3cc21 was 5.59

COCCNCc1ccc(-c2ccc3c(Nc4ccc(F)cc4Cl)ccnc3c2)o1 has a reported inhibition of 5.59

CCOc1cccc2nc(NCCCNCc3ccc(Cl)c(Cl)c3)cc(NCCCNCc3ccc(Cl)c(Cl)c3)c12 yielded inhibition of -0.45

Just so you know, measured inhibition for COc1cc(NC(=O)CCCCCCCN2CCN(C)CC2)c2ncccc2c1 came out at 1.09

The compound listed as CN(c1ccc(NC(=O)c2ccc(F)cc2)cc1)C1CCN(Cc2cccc(F)c2)C1 (stereo not given) has a reported inhibition of 3.04

Entry Cc1c(S(=O)(=O)Nc2ccc3ccn(CCN(C)C)c3c2)sc2ccc(Cl)cc12 ; inhibition = 1.18

Note to self: inhibition recorded for CC(=O)c1nccc(C)c1N was 2.57

Reported inhibition for CN(C)c1ccc(CN2CCC(NC(=O)c3ccc(-c4ccc(N(C)C)cc4)s3)CC2)cc1 was -0.4

For record CC(=O)Nc1cccc(-c2cnc(N)c3cc(-c4ccc5c(c4)OCO5)ccc23)c1 the listed inhibition is 5.76

Looking up Cc1nc(N)nc(N)c1OCc1cccc2ccccc12 , I found its inhibition recorded as -1.23

Field inhibition (entry O=C(Nc1ccc(F)cc1)NC1CCN(c2ccnc3ccccc23)C1 (stereo not given) ) reads 3.79

Recorded result, CC1(C)N=C(N)N=C(N)N1c1cc(Cl)c(Cl)cc1Cl , inhibition: -3.01

Quick note, inhibition for CCN(C)c1cc(C(=O)N[C@@H](Cc2ccccc2)[C@H](O)CNC(C)(C)c2cccc(OC)c2)cc(N2CCCC2=O)c1 landed at 4.41

The compound Oc1cccc(-c2cnc3ccc(NCc4ccc(F)cc4)nn23)c1 showed inhibition equal to -1.63

get_value(item= Nc1ncc(-c2ccccc2)cc1-c1nc2cc(Cl)c(F)cc2[nH]1 , readout=inhibition) returns 3.16

response.value for COc1ccc(Cn2c(Nc3cccc(C(F)(F)F)c3)nc3cc(C(=O)NC4CC4)cnc32)cc1Cl (field: inhibition) = -3.22

Lab book: inhibition of C=C[C@H]1CN(CCCCCCC)CC[C@H]1CCNc1ccnc2ccc(OC)cc12 noted as -1.48

The recorded inhibition for CC(C)(CNC(=O)[C@@H]1CCCN(Cc2ccc(Cl)cc2)C1)c1nc(-c2ccc(Cl)c(O)c2)c(-c2ccncc2)[nH]1 is 0.77

inhibition reported for this compound CC(NC(C)c1cccc(Cl)c1)C(=O)Nc1cc(C(F)(F)F)ccc1N1CCOCC1 (stereo not given) : -9.9

# inhibition (compound: Clc1ccc(/N=C(/NCCCCCCCN/C(=N\c2ccc(Cl)cc2)Nc2ccc(Cl)cc2)Nc2ccc(Cl)cc2)cc1 ) is -1.85

The compound identified as COc1ccc(-c2nc3cccnc3n2CC(=O)Nc2cc(Cl)c(Cl)cc2Cl)c(OC)c1 registered its inhibition at -2.74

Data point: Cc1ccc(F)c(OCC2CCN(c3ccc(C(=O)NC4CC4)cn3)CC2)c1 ; inhibition = -1.65

Recorded inhibition (compound CCc1ccc2nc(-c3ccc(F)cc3)nc(SCC(=O)Nc3sc(C)c(C)c3C#N)c2c1 ): 5.07

Please fill in: inhibition reported for O=C(Cc1cccc(Cl)c1)Nc1ccc(N2CCC(NCc3ccc4ncccc4c3)CC2)cc1 = 8.71

For reference, reported inhibition for CCCCN(CCCC)Cc1cc(N(C)c2ccc([N+](=O)[O-])cn2)ccc1O stands at 1.69

Value of inhibition reported for the compound Oc1ccc(CCNCCCCCCNCCc2ccc(Br)cc2)cc1O is 0.85

inhibition reading for Cc1[nH]c(CNCCCNc2cc(=O)c3ccccc3[nH]2)c(Br)c1Br : -0.49

Lab book: inhibition of CCc1cc(N2CCN(c3ccccc3F)CC2)nc(SCc2ccc(C(=O)NC3CC3)o2)n1 noted as 2.15

Lab book: inhibition of Oc1ccc(Nc2nc(NCc3ccccc3)c3ccccc3n2)cc1 noted as 10.6

Record summary for O=C(CN1CCCC1)Nc1cccc(C(=O)Nc2cccc(C(F)(F)F)c2)c1 : reported inhibition = 3.18

Looking up Cc1ccc2nc(N/C(N)=N/C(=O)NC3CCCCC3)nc(C)c2c1 , I found its inhibition recorded as 2.16

Please fill in: inhibition reported for CNCCNCc1ccc(-c2ccc(-c3nc4cc(C(F)(F)F)ccc4[nH]3)cc2)cc1 = 2.46

Recorded result, CC(=O)Oc1c(C2CCN(CCCCNC(=O)c3ccc(-c4ccc(C#N)cc4)cc3)CC2)ccc2c1CCCC2 , inhibition: 1.58

Sure, the documented inhibition for CNc1ccc(CNCc2cccc(-c3ccc(-c4nc5cccc(C)c5[nH]4)cc3)c2)cc1 is 0.87

Entry CCCC(CNCc1cccc(I)c1)CNc1cc(=O)c2ccccc2[nH]1 (stereo not given) , inhibition reported as 2.67

Please fill in: inhibition reported for COc1cccc(OC2CCN(C(=O)c3ccc(-c4ccc(N5CCCC5=O)cc4C)cc3)CC2)c1 = 3.06

Lab note: measured inhibition of Cc1cccc2nc(-c3cccc(-c4cccc(NC(=O)NCc5ccccc5)c4)c3)[nH]c12 was -4.27

// sample COc1c(C2CCN(CCCCNC(=O)c3ccc(-c4ccc(Cl)cc4)c(O)c3)CC2)ccc2c1CCCC2 , its inhibition was 0.11

Sample CC(C)c1ncc(-c2ccncc2)c(C2CCC(CNC(=O)c3ccncc3)CC2)n1 (stereo not given) ; inhibition observed: 1.87

Lab note: CCCCCC(NCCCC)c1ccc(OCCOc2ccc(C(CCCCC)NCCCC)cc2)cc1 (stereo not given) gave inhibition of 85.3

###

- target-or-system: Glucose transporter (Leishmania mexicana) (UniProt O61059)
- procedure-text: ST_JUDE_LEISH: Cytotoxicity at 2uM final concentration against transgenic Leishmania Mexicana promastigotes LmGT2 that are glucose transport deficient and complemented with the L. Mexicana glucose transporter 2. Activity is measured by DNA content using SYBR green in vitro
- Type: functional
quantity: inhibition (%)
Write down the numeric answer in % and omit the unit.

Measured inhibition of CC(=O)Nc1ccc(C(=O)Nc2cccc(-c3cccc(-c4nc5cc(F)ccc5[nH]4)c3)c2)cn1 : 3.74

The molecule listed as COc1cccc(-c2nn(C)c3sc(C(=O)Nc4cccnc4)cc23)c1 shows inhibition equal to -0.35

Record CC(C)(C)c1cc(C(=O)N2CCC(c3ccccn3)CC2)n(Cc2ccccc2)n1 , field inhibition: -0.6

Memo: Cc1cc(N(C)C)nc(Nc2ccc(NC(=O)c3ccccc3F)cc2)n1 , reported inhibition: 2.04

Just so you know, measured inhibition for CC1CN(c2cnn(Cc3ccc(NC(=O)Nc4ccc(F)cc4[N+](=O)[O-])cc3)c(=O)c2Cl)CC(C)N1 (stereo unspecified) came out at 2.58

What the record says about CC(C)c1ncc(-c2ccncc2)c(C2CCC(CNC(=O)c3cccnc3)CC2)n1 (stereo unspecified) : inhibition is 1.81

Briefly, inhibition measured for O=C(Nc1ccc(N2CCN(Cc3cccc(F)c3)CC2)cc1)c1cccs1 : 4.59

The molecule identified as CC(C)C(=O)NC(NC(=S)Nc1ccc(Br)cc1)C(Cl)(Cl)Cl (stereo unspecified) registered its inhibition at -0.89

Entry CC(=O)c1ccc(N2CCN(CCC3(c4ccc(Cl)c(Cl)c4)COCN(C(=O)c4ccccc4)C3)CC2)cc1 (stereo unspecified) ; inhibition = -0.21

inhibition in this record for Cc1c(Cc2ccc(C(C)C)cc2)cnc2nc(N)nc(N)c12 : 1.42

Summary for this molecule, CC(=O)Nc1ccc(Nc2cc(C)nc(Nc3ccc(NC(C)=O)cc3)n2)cc1 : inhibition is 2.71

Lookup result for Cc1nn(CC(O)Cn2c3ccc(Br)cc3c3cc(Br)ccc32)c(C)c1Br (stereo unspecified) ; measured inhibition: -0.3

Form field inhibition, entry CCCC(CNCc1cccc(OC(F)(F)F)c1)CNc1cc(=O)c2ccccc2[nH]1 (stereo unspecified) : 2.94

Notebook: CN(C(=O)c1ccc(Br)cc1)c1ccccc1[N+](=O)[O-] , inhibition read as -2.57

# inhibition (molecule: COc1ccc(CNCc2ccccc2)cc1-c1ccc(S(=O)(=O)NCCN2CCCC2)s1 ) is 4.5

# inhibition of CCNc1cc(C(=O)N[C@@H](Cc2ccccc2)[C@H](O)CNC2CC3CCC2C3)cc(N2CCCCS2(=O)=O)c1 (stereo partly specified) = -3.22

Lookup result for c1cncc(NCc2ccc(-c3cc4ccncc4cc3OC3CCNCC3)s2)c1 ; measured inhibition: 4.54

Reported inhibition ( CCCN1CCC2(CC1)NC(C(=O)NCCC(C)C)Cc1c2[nH]c2cc(Cl)ccc12 (stereo unspecified) ) = 2.82

Entry CN1CCC(NCc2ccc(-c3ccc(C(F)(F)F)cc3)cc2)CC1 , inhibition reported as 0.62

// Cc1cc(N2C(N)=NC(N)=NC2(C)C)ccc1Cl : inhibition value = -0.97

Value of inhibition reported for the molecule COCC(=O)Nc1nc2ccccc2[nH]1 is 2.36
